// provenance: ChEMBL document CHEMBL3885861

organism: Rattus norvegicus; test: Open TG-GATES - Regimen: Single; type: toxicity, organism-based, Sprague-Dawley; design: regimen Single, gender Male, age 6 weeks; conditions: in vivo, po, 0 mg/kg, 6 h, tissue Plasma, route gavage, dose level Control
quantity: CRE (mg/dL)
Express it in mg/dL; write the number only.

Solved cases (6 shown):
1. CN(C)CCCN1c2ccccc2Sc2ccc(Cl)cc21
0.4
2. C=C[C@H]1C[N@@]2CC[C@H]1C[C@@H]2[C@@H](O)c1ccnc2ccc(OC)cc12
0.2
3. COc1ccc([C@@H]2Sc3ccccc3N(CCN(C)C)C(=O)[C@@H]2OC(C)=O)cc1
0.2
4. CN(C/C=C/C#CC(C)(C)C)Cc1cccc2ccccc12
0.4
5. CCO
0.5
6. O=C(O)c1ccccc1Nc1ccccc1
0.2

For the compound `CCN(CC)C(=S)SSC(=S)N(CC)CC` , what CRE is on record?
0.1

For the compound NS(=O)(=O)c1cc(C(=O)O)c(NCc2ccco2)cc1Cl [FUROSEMIDE] , what CRE is on record?
0.2

For the compound CC(S)C(=O)NCC(=O)O (configuration not stated) , what CRE is on record?
0.1

For the compound `O=c1ccc2ccccc2o1` , what CRE is on record?
0.5

For the compound `Nc1ccc(Cc2ccc(N)cc2)cc1` , what CRE is on record?
0.2

For the compound CCCCNC(=O)NS(=O)(=O)c1ccc(C)cc1 [TOLBUTAMIDE] , what CRE is on record?
0.2

====

organism: Rattus norvegicus; assay: Open TG-GATES - Regimen: Single; type: toxicity, organism-based, Sprague-Dawley; set-up: regimen Single, gender Male, age 6 weeks; details: in vivo, po, 0 mg/kg, 6 h, tissue Blood, route gavage, dose level Control
quantity: RBC
Answer with the number, then the unit.

For the molecule `COc1ccc([C@@H]2Sc3ccccc3N(CCN(C)C)C(=O)[C@@H]2OC(C)=O)cc1` , what RBC is on record?
609.6 x10_4/ul

For the molecule `COc1cc2ncnc(Nc3ccc(F)c(Cl)c3)c2cc1OCCCN1CCOCC1` , what RBC is on record?
623.6 x10_4/ul

====

species: Rattus norvegicus; assay: Open TG-GATES - Regimen: Daily Repeat; assay type: toxicity, organism-based, Sprague-Dawley; design: regimen Daily Repeat, gender Male, age 6 weeks; settings: in vivo, po, 0 mg/kg, […], route gavage, dose level Control, time 14 day
TERMINAL_BW by entry:
Express it in g; write the number only.

For the compound CN(CCOc1ccc(CC2SC(=O)NC2=O)cc1)c1ccccn1.O=C(O)/C=C\C(=O)O (stereo not drawn) [ROSIGLITAZONE MALEATE] , what TERMINAL_BW is on record?
332.1

For the compound `CCCCC1C(=O)N(c2ccccc2)N(c2ccccc2)C1=O` , what TERMINAL_BW is on record?
318.1

For the compound `O=c1ccc2ccccc2o1` , what TERMINAL_BW is on record?
286.1

For the compound `CN(C/C=C/C#CC(C)(C)C)Cc1cccc2ccccc12` , what TERMINAL_BW is on record?
323.8

====

organism: Rattus norvegicus; assay: Open TG-GATES - Regimen: Daily Repeat; assay type: toxicity, organism-based, Sprague-Dawley; design: regimen Daily Repeat, gender Male, age 6 weeks; conditions: in vivo, po, 1000 mg/kg, […], tissue Kidney, route gavage, dose level High, time 7 day
quantity: KIDNEY_L (g)
Express it in g; write the number only.

Solved cases (3 shown):
1) CC(=O)[C@@]1(O)CC[C@H]2[C@@H]3C=C(Cl)C4=CC(=O)CC[C@]4(C)[C@H]3CC[C@@]21C
1
2) CCCCNC(=O)NS(=O)(=O)c1ccc(C)cc1 [TOLBUTAMIDE]
1.1
3) O=C(O)c1ccccc1Nc1ccccc1
1.1

Please look at the following compound next.
For the compound CC(S)C(=O)NCC(=O)O (centres undefined) , what KIDNEY_L is on record?
1.1

====

species: Rattus norvegicus; assay: Open TG-GATES - Regimen: Daily Repeat; format: toxicity, organism-based, Sprague-Dawley; design: regimen Daily Repeat, gender Male, age 6 weeks; settings: in vivo, po, 0 mg/kg, 72 h, tissue Liver, route gavage, dose level Control, time 3 day
quantity: LIVER (g)
Express it in g; write the number only.

Solved cases (4 shown):
1) CCO
11.2
2) CN(C/C=C/C#CC(C)(C)C)Cc1cccc2ccccc12
11.8
3) CC(=O)[C@@]1(O)CC[C@H]2[C@@H]3C=C(Cl)C4=CC(=O)CC[C@]4(C)[C@H]3CC[C@@]21C
10.8
4) CN(CCOc1ccc(CC2SC(=O)NC2=O)cc1)c1ccccn1.O=C(O)/C=C\C(=O)O (centres undefined) [ROSIGLITAZONE MALEATE]
12.6

For the molecule CC(S)C(=O)NCC(=O)O (centres undefined) , what LIVER is on record?
10.5

====

ALT by entry:
organism: Rattus norvegicus; test: Open TG-GATES - Regimen: Single; format: toxicity, organism-based, Sprague-Dawley; set-up: regimen Single, gender Male, age 6 weeks; conditions: in vivo, po, 0 mg/kg, 3 h, tissue Plasma, route gavage, dose level Control
Answer with the number, then the unit.

Solved cases (4 shown):
1. CC(S)C(=O)NCC(=O)O (centres undefined)
46 IU/L
2. CN(C/C=C/C#CC(C)(C)C)Cc1cccc2ccccc12
40.4 IU/L
3. Nc1ccc(Cc2ccc(N)cc2)cc1
46.8 IU/L
4. NS(=O)(=O)c1cc(C(=O)O)c(NCc2ccco2)cc1Cl [FUROSEMIDE]
40.4 IU/L

For the molecule `O=C(O)c1ccccc1Nc1ccccc1` , what ALT is on record?
33.2 IU/L

For the molecule CCCCNC(=O)NS(=O)(=O)c1ccc(C)cc1 [TOLBUTAMIDE] , what ALT is on record?
43.8 IU/L

For the molecule `CC(=O)[C@@]1(O)CC[C@H]2[C@@H]3C=C(Cl)C4=CC(=O)CC[C@]4(C)[C@H]3CC[C@@]21C` , what ALT is on record?
42 IU/L

For the molecule `CCN(CC)C(=S)SSC(=S)N(CC)CC` , what ALT is on record?
48 IU/L

For the molecule `CCO` , what ALT is on record?
39.2 IU/L

====

organism: Rattus norvegicus; assay: Open TG-GATES - Regimen: Single; type: toxicity, organism-based, Sprague-Dawley; parameters: regimen Single, gender Male, age 6 weeks; conditions: in vivo, po, 0 mg/kg, 3 h, tissue Plasma, route gavage, dose level Control
quantity: Ca
Answer with the number, then the unit.

Solved cases (5 shown):
1. CN(C)CCCN1c2ccccc2Sc2ccc(Cl)cc21 [CHLORPROMAZINE]
10.8 mg/dL
2. CN(CCOc1ccc(CC2SC(=O)NC2=O)cc1)c1ccccn1.O=C(O)/C=C\C(=O)O (stereo unspecified) [ROSIGLITAZONE MALEATE]
11.4 mg/dL
3. CCO [ALCOHOL]
10.8 mg/dL
4. CN(C/C=C/C#CC(C)(C)C)Cc1cccc2ccccc12 [TERBINAFINE]
10.8 mg/dL
5. CCCCNC(=O)NS(=O)(=O)c1ccc(C)cc1 [TOLBUTAMIDE]
11 mg/dL

For the compound O=C(O)c1ccccc1Nc1ccccc1 [FENAMIC ACID] , what Ca is on record?
10.9 mg/dL

For the compound CC(=O)[C@@]1(O)CC[C@H]2[C@@H]3C=C(Cl)C4=CC(=O)CC[C@]4(C)[C@H]3CC[C@@]21C [CHLORMADINONE] , what Ca is on record?
10.8 mg/dL

For the compound COc1ccc([C@@H]2Sc3ccccc3N(CCN(C)C)C(=O)[C@@H]2OC(C)=O)cc1 [DILTIAZEM] , what Ca is on record?
10.9 mg/dL

For the compound O=c1ccc2ccccc2o1 [COUMARIN] , what Ca is on record?
10.9 mg/dL

For the compound `Nc1ccc(Cc2ccc(N)cc2)cc1` , what Ca is on record?
11 mg/dL

For the compound CC(S)C(=O)NCC(=O)O (stereo unspecified) [TIOPRONIN] , what Ca is on record?
10.7 mg/dL

====

species: Rattus norvegicus; assay: Open TG-GATES - Regimen: Single; type: toxicity, organism-based, Sprague-Dawley; design: regimen Single, gender Male, age 6 weeks; conditions: in vivo, po, 0 mg/kg, 3 h, tissue Plasma, route gavage, dose level Control
TG by entry:
Answer with the number, then the unit.

Solved cases (3 shown):
1) C=C[C@H]1C[N@@]2CC[C@H]1C[C@@H]2[C@@H](O)c1ccnc2ccc(OC)cc12 [QUINIDINE]
60.6 mg/dL
2) CN(CCOc1ccc(CC2SC(=O)NC2=O)cc1)c1ccccn1.O=C(O)/C=C\C(=O)O (centres undefined) [ROSIGLITAZONE MALEATE]
71.4 mg/dL
3) COc1ccc([C@@H]2Sc3ccccc3N(CCN(C)C)C(=O)[C@@H]2OC(C)=O)cc1 [DILTIAZEM]
38.4 mg/dL

For the compound CC(=O)[C@@]1(O)CC[C@H]2[C@@H]3C=C(Cl)C4=CC(=O)CC[C@]4(C)[C@H]3CC[C@@]21C [CHLORMADINONE] , what TG is on record?
63.4 mg/dL

For the compound CC(S)C(=O)NCC(=O)O (centres undefined) [TIOPRONIN] , what TG is on record?
65.4 mg/dL
